Source of measurements: the supplement of paper PMC10567573

B1: S100A14 (parent)
chain: KIANLGSCNDSKLEFRSFWELIGE

Variants of: B1
Test: protein stability index of a GFP-peptide fusion (GPS, HEK-293T) (PSI 1-6); higher = more stable;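 note: lentivirally expressed fusions sorted by FACS into six bins by GFP to DsRed ratio, PSI derived from sequencing read proportions per bin multiplied by bin number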
Conditions: c terminus: a fixed tail appended
Kindly return yes (1) if reported protein stability index is no lower than 2; return no (0) if it is lower.

CHAIN | CLASS ASSIGNMENT
KIANLGSCNDSKLEFRSFWQLIGE [E20Q] | no (0)
KIANLGSCNDSKLEFRSFWELILE [G23L] | no (0)
KIANLGSCNVSKLEFRSFWELIGE [D10V] | yes (1)
KIANLGSCNDSKLAFRSFWELIGE [E14A] | no (0)
KIANLGSCNDEKLEFRSFWELIGE [S11E] | no (0)

Determine whether this variant has protein stability index no lower than 2: KIAYLGSCNDSKLEFRSFWELIGE [N4Y]
yes (1)
